# Test system: SN12C renal
# protocol-text: NCI-60 one-dose screen, 48 h
# condition-context: 10 µM unless noted
Compounds without any hit were thinned out: in the full panel of roughly 83,000, 20% have a hit. The source made the active and inactive calls. Rule for the calls: active = growth percent below 10; inactive = the rest.
Outcomes: active, inactive

[
  {
    "molecule": "COc1cc2c3c(n(CCCN4CCC[C@H]4C(N)=O)c(=O)c2cc1OC)-c1cc2c(cc1C3=O)OCO2",
    "label-value": "inactive"
  },
  {
    "molecule": "Cc1cc(C(=O)Nc2ccc(SC#N)cc2)c(C)o1",
    "label-value": "inactive"
  },
  {
    "molecule": "COc1ccc(NC(=O)[C@H](C)NC(=O)OC(C)(C)C)cc1C(=O)Nc1cccc(-c2cc(=O)c3c(OC)c(OC)c(OC)cc3o2)c1",
    "label-value": "active"
  },
  {
    "molecule": "N#Cc1c(-c2ccccc2)cc(-c2c[nH]c3ccccc23)nc1-c1c[nH]c2ccccc12",
    "label-value": "inactive"
  },
  {
    "molecule": "CCC(=O)Nc1cc(Nc2cc(NC3CC3)n3ncc(C#N)c3n2)ccc1C",
    "label-value": "inactive"
  },
  {
    "molecule": "Cc1ccc(-c2cc(-c3cccc4ccccc34)n3c(n2)nc2ccccc23)cc1",
    "label-value": "inactive"
  },
  {
    "molecule": "IP(CCCCCCCCCCSc1n(Cc2ccc3ccccc3c2)c(-c2ccccc2)c(-c2ccccc2)[n+]1Cc1ccc2ccccc2c1)(c1ccccc1)(c1ccccc1)c1ccccc1",
    "label-value": "active"
  },
  {
    "molecule": "CS(=O)(=O)c1ccc2c(c1)c1c(n2Cc2ccc(Cl)cc2)CCCC1",
    "label-value": "inactive"
  },
  {
    "molecule": "COc1cc(/C=C2\\SC(=O)NC2=O)ccc1OCC(=O)Nc1ccc(C(=O)/C=C/c2cc3ccccc3nc2Cl)cc1",
    "label-value": "inactive"
  },
  {
    "molecule": "O=c1cc(-c2ccccc2)nc2sc(-c3c[nH]c4ccc(Br)cc34)nn12",
    "label-value": "inactive"
  },
  {
    "molecule": "O=S(=O)(Nc1ccc(I)c(Cl)c1)c1ccc(-c2cnc(C3CC3)o2)cc1",
    "label-value": "inactive"
  },
  {
    "molecule": "CS(=O)(=O)c1ccc(-c2nn(-c3ccccc3)cc2/C=C/C(=O)c2ccc(Br)cc2)cc1",
    "label-value": "inactive"
  },
  {
    "molecule": "COc1cccc(/C=C/C(=O)c2ccc(NC(=O)COc3cccc4cccnc34)cc2)c1",
    "label-value": "inactive"
  },
  {
    "molecule": "O=C1/C(=C/c2ccc([N+](=O)[O-])cc2)SC(=Nc2ccccc2)N1Nc1ccccc1",
    "label-value": "inactive"
  },
  {
    "molecule": "COc1ccc(Oc2ccc(C3CC(c4cc(OC)c(OC)c(OC)c4)=NN3C(C)=O)cc2)cc1 (stereo not given)",
    "label-value": "inactive"
  },
  {
    "molecule": "COc1cc(/C=N/n2cnc3oc(-c4ccccc4)cc3c2=N)cc(CN2CCN(C)CC2)c1O",
    "label-value": "inactive"
  },
  {
    "molecule": "CCN(CC)c1ccc2cc(C(=O)NCCOCCOCCOCCn3cc(CCC(=O)Nc4ccc(C(=O)c5ccc(NC(=O)OC(C)(C)C)cc5)cc4)nn3)c(=O)oc2c1",
    "label-value": "inactive"
  },
  {
    "molecule": "CCn1c2ccc(/C=N/NS(=O)(=O)CCN(C)C)cc2c2cc(/C=N/NS(=O)(=O)CCN(C)C)ccc21",
    "label-value": "inactive"
  },
  {
    "molecule": "COC[C@@]1(C)CC[C@]2(C)CC[C@]3(C)C(=CC[C@@H]4[C@@]5(C)CCCNC(C)(C)[C@@H]5CC[C@]43C)C2C1 (stereo not given in full)",
    "label-value": "inactive"
  },
  {
    "molecule": "O=C(CCCCCCN1CC(=O)N2[C@@H](c3cc(F)cc(F)c3)c3[nH]c4ccccc4c3C[C@H]2C1=O)NO",
    "label-value": "inactive"
  },
  {
    "molecule": "O=C(c1ccc(O)cc1)[C@@H]1[C@@H]2CCCN2[C@@]2(C(=O)N(C(=O)c3ccc(F)cc3)c3ccccc32)[C@H]1c1ccc(F)cc1",
    "label-value": "inactive"
  },
  {
    "molecule": "CCOC(=O)c1c(NC(=O)c2ccc(F)cc2F)sc2c1CCC(=O)C2",
    "label-value": "inactive"
  },
  {
    "molecule": "CCN1C(=O)N(CC)C2SC(N/N=C/c3ccc(OC)cc3)=NC21 (stereo not given)",
    "label-value": "inactive"
  },
  {
    "molecule": "CCOC(=O)CC(=O)CSC1=NC2C(NN1)N(C)C(=O)N2C (stereo not given)",
    "label-value": "inactive"
  },
  {
    "molecule": "COc1cc(O)c2c(c1)[C@H]1O[C@@H]1C[C@H](O)[C@H](O)C(=O)/C=C\\C[C@H](C)OC2=O",
    "label-value": "inactive"
  },
  {
    "molecule": "Oc1ccccc1/C=N/Nc1nc(N/N=C/c2ccccc2O)nc(N2CCOCC2)n1",
    "label-value": "inactive"
  },
  {
    "molecule": "COC[C@]12CC[C@@H](C)[C@H](C)[C@H]1C1=CC[C@@H]3[C@@]4(C)CCCNC(C)(C)[C@@H]4CC[C@@]3(C)[C@]1(C)CC2",
    "label-value": "inactive"
  },
  {
    "molecule": "CCCCCCCCNC(=O)c1ccc(Cn2c(CCCC)nc3c(N)nc4ccccc4c32)cc1",
    "label-value": "active"
  },
  {
    "molecule": "COc1cc(/C=N/n2cnc3oc(-c4ccccc4)cc3c2=N)cc(CN2CCCCC2)c1O",
    "label-value": "active"
  },
  {
    "molecule": "O=C(CSc1nnc(-c2cccs2)n1-c1ccccc1)Nc1ccc(F)cc1",
    "label-value": "inactive"
  },
  {
    "molecule": "COC(=O)c1nc(-c2ccc(C)cc2)oc1S(=O)(=O)N1CCN(c2oc(-c3ccccc3)nc2C#N)CC1",
    "label-value": "inactive"
  },
  {
    "molecule": "CCOC(=O)c1c(Nc2ccccc2)nn2c(-c3ccc(Br)cc3)ccnc12",
    "label-value": "inactive"
  },
  {
    "molecule": "O=S(=O)(Nc1cc(Cl)c(F)c(Cl)c1)c1ccc(-c2cnc(C3CC3)o2)cc1",
    "label-value": "inactive"
  },
  {
    "molecule": "COc1ccc(N)cc1C(=O)Nc1cccc(-c2cc(=O)c3c(OC)c(OC)c(OC)cc3o2)c1",
    "label-value": "inactive"
  },
  {
    "molecule": "O=C(NCCCNc1cc(-c2cn(-c3ccccc3)nc2-c2cccc(O)c2)ccn1)Nc1cccc(C(F)(F)F)c1",
    "label-value": "inactive"
  }
]
